Every entry's value here was drawn from PubChem BioAssay (EPA / NIEHS).

- protocol.text: ATG_GRE_CIS: Attagene CIS-FACTORIAL HepG2 Assay for human Glucocorticoid Response Elements (GRE) (AID 2282947)
- condition.notes: HepG2 GRE cis-reporter, Attagene multiplex mRNA; actives raise or lower the signal
Active and inactive are the calls of the source. The calls were made as follows: active = hit-call score of the fitted dose curve at least 0.9, where 1 is the maximum; inactive = score below 0.9.
Pick one: TRUE for active, FALSE for inactive

Hi, sorry to bother you, what did the test record for CC(C)CCOCc1ccccc1 ?
FALSE

Hi, sorry to bother you, what did the test record for C=C1C[C@H]2[C@@H]3C=C(C)C4=CC(=O)CC[C@]4(C)[C@H]3CC[C@]2(C)[C@@]1(OC(C)=O)C(C)=O ?
TRUE

Hi, sorry to bother you, what did the test record for CCOC(=O)[C@H](O)[C@@H](O)C(=O)OCC ?
FALSE

Hi, sorry to bother you, what did the test record for Clc1cc(Cl)c(Cl)c(Cl)c1Cl ?
FALSE

Hi, sorry to bother you, what did the test record for CCOC(=O)CC(=O)c1ccccc1 ?
FALSE

Hi, sorry to bother you, what did the test record for Cc1ccc2c(c1)CCCN2 ?
FALSE

Hi, sorry to bother you, what did the test record for Cc1cccc(C(C)(C)C)c1O ?
FALSE

Hi, sorry to bother you, what did the test record for Oc1ccccc1Cc1ccccc1O ?
FALSE

Hi, sorry to bother you, what did the test record for C=Cc1ccc(OC(C)=O)cc1 ?
FALSE

Hi, sorry to bother you, what did the test record for O=C1CCCCC1C1CCCCC1 (centres undefined) ?
FALSE

Hi, sorry to bother you, what did the test record for O=C(Cl)c1ccc(C(=O)Cl)cc1 ?
FALSE

Hi, sorry to bother you, what did the test record for CC(=O)CCC=C(C)C ?
FALSE

Hi, sorry to bother you, what did the test record for COC(=O)c1ccc(C(=O)OC)c(C(=O)OC)c1 ?
FALSE

Hi, sorry to bother you, what did the test record for CC1(C)[C@@H]2CC[C@@]1(C)C(=O)C2 ?
FALSE

Hi, sorry to bother you, what did the test record for C=C(C)C1CC=C(C)C(OC(C)=O)C1 (centres undefined) ?
FALSE

Hi, sorry to bother you, what did the test record for CC(=O)c1ccc(S(=O)(=O)NC(=O)NC2CCCCC2)cc1 ?
FALSE

Hi, sorry to bother you, what did the test record for CCOC(=O)/C=C\C(=O)OCC ?
FALSE

Hi, sorry to bother you, what did the test record for Cc1c[nH]c(=O)[nH]c1=O ?
FALSE

Hi, sorry to bother you, what did the test record for Oc1c(Cl)cc(Cl)c(Cl)c1Cl ?
FALSE

Hi, sorry to bother you, what did the test record for CCCCCCCCCCCC(C)=O ?
FALSE

Hi, sorry to bother you, what did the test record for Nc1ccc(C(=O)O)cc1 ?
FALSE

Hi, sorry to bother you, what did the test record for CC(=O)OCc1ccccc1 ?
FALSE

Hi, sorry to bother you, what did the test record for Fc1ccc(Br)cc1 ?
FALSE

Hi, sorry to bother you, what did the test record for CC(=O)CC(=O)Nc1ccccc1C ?
FALSE

Hi, sorry to bother you, what did the test record for CC/C=C\C/C=C\C/C=C\CCCCCCCC(=O)OC ?
FALSE

Hi, sorry to bother you, what did the test record for N#Cc1ccc(C2CCCc3cncn32)cc1 (centres undefined) ?
FALSE

Hi, sorry to bother you, what did the test record for CC(C=O)c1ccccc1 (centres undefined) ?
FALSE

Hi, sorry to bother you, what did the test record for C=CC(C)(O)CC/C=C(\C)CC (centres undefined) ?
FALSE

Hi, sorry to bother you, what did the test record for CCCC=C(C=O)CC ?
FALSE

Hi, sorry to bother you, what did the test record for CCCCCCCCCCCCC ?
FALSE

Hi, sorry to bother you, what did the test record for CCCCCCCOC(=O)c1ccc(O)cc1 ?
FALSE

Hi, sorry to bother you, what did the test record for CCC(C)C(=O)OC (centres undefined) ?
FALSE

Hi, sorry to bother you, what did the test record for O=C(Oc1ccccc1)c1ccccc1C(=O)Oc1ccccc1 ?
FALSE

Hi, sorry to bother you, what did the test record for COC(C=C(C)CCC=C(C)C)OC ?
FALSE

Hi, sorry to bother you, what did the test record for CO[Si](CCCS)(OC)OC ?
FALSE

Hi, sorry to bother you, what did the test record for CCCCC1C(=O)N(c2ccccc2)N(c2ccccc2)C1=O ?
FALSE

Hi, sorry to bother you, what did the test record for CC(=O)OCCc1ccccc1 ?
FALSE

Hi, sorry to bother you, what did the test record for CCCCCCCCCCCCCC(=O)OC(C)C ?
FALSE

Hi, sorry to bother you, what did the test record for CCCCCCCCCCCCCc1ccccc1 ?
FALSE

Hi, sorry to bother you, what did the test record for CCCCCC[C@@H](O)C/C=C\CCCCCCCC(=O)OCC(O)CO (some centres undefined) ?
TRUE

Hi, sorry to bother you, what did the test record for C=C(C)C(=O)OCCOC(=O)C(=C)C ?
FALSE

Hi, sorry to bother you, what did the test record for CCOC(=O)OC(=O)OCC ?
FALSE

Hi, sorry to bother you, what did the test record for C1CCSC1 ?
FALSE

Hi, sorry to bother you, what did the test record for CN(C)Cc1cc(CN(C)C)c(O)c(CN(C)C)c1 ?
FALSE

Hi, sorry to bother you, what did the test record for C[N+](C)(C)CCCNS(=O)(=O)C(F)(F)C(F)(F)C(F)(F)C(F)(F)C(F)(F)C(F)(F)C(F)(F)C(F)(F)F ?
FALSE

Hi, sorry to bother you, what did the test record for CC(C)=CCl ?
FALSE

Hi, sorry to bother you, what did the test record for CC(=O)OC(C)c1ccccc1 (centres undefined) ?
FALSE

Hi, sorry to bother you, what did the test record for O=S(=O)(O)c1ccc(N=Nc2c(O)ccc3ccccc23)cc1 ?
FALSE

Hi, sorry to bother you, what did the test record for CCCCCCCCCCCCc1ccc(O)cc1 ?
FALSE

Hi, sorry to bother you, what did the test record for COc1cc(C)ccc1O ?
FALSE

Hi, sorry to bother you, what did the test record for CC(=O)OC1CCCCC1 ?
FALSE

Hi, sorry to bother you, what did the test record for Cc1c(Cl)cccc1Cl ?
FALSE

Hi, sorry to bother you, what did the test record for CC(C)c1cc(C(C)C)cc(C(C)C)c1 ?
FALSE

Hi, sorry to bother you, what did the test record for CN(C)c1ccc2nc3ccc(=[N+](C)C)cc-3sc2c1 ?
FALSE

Hi, sorry to bother you, what did the test record for CC1C(C)(C)C2=C(C(=O)CCC2)C1(C)C (centres undefined) ?
FALSE

Hi, sorry to bother you, what did the test record for COC(=O)CC(C)CCC=C(C)C (centres undefined) ?
FALSE

Hi, sorry to bother you, what did the test record for O=C(O)C(F)(F)C(F)(F)C(F)(F)C(F)(F)C(=O)O ?
FALSE

Hi, sorry to bother you, what did the test record for CC=C(C)C=CC=C(C)C ?
FALSE

Hi, sorry to bother you, what did the test record for O=S(=O)(O)c1ccc(Nc2nc(Nc3ccc(C=Cc4ccc(Nc5nc(Nc6ccc(S(=O)(=O)O)cc6)nc(N(CCO)CCO)n5)cc4S(=O)(=O)O)c(S(=O)(=O)O)c3)nc(N(CCO)CCO)n2)cc1 ?
FALSE
